- Assay system: UCHL1, P09936
- Sequence (P09936 whole entry, looked up, the tested form may be a part): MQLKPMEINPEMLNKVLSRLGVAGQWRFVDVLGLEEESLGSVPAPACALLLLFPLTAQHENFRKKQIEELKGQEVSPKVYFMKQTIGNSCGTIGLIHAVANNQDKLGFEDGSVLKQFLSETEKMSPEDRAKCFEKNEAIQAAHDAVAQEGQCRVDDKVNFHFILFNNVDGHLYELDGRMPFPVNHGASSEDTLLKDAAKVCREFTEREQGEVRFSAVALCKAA
- Experiment description: median log2 fold change of GCK-ALFA target abundance (FLAG IP / Myc IP barcode read proportion) (log2 ratio); each designed protein is fused to an ALFA-tag nanobody in HEK293 cells to bring the named protein to FLAG-tagged glucokinase (GCK); Myc marks an untargeted standard; higher = target protein stabilised (more abundant)
- Conditions: target protein: 3xFLAG-MCP-GCK-ALFA reporter; HEK293 landing pad (RPLP)
Reported median log2 fold change values are given for each entry in this list.
I only need the number, thanks.

uchl1_2_7562 (protein) KPVFIGVLVTLTAEDKETGKTYRSRRTLIFTESAIEALAEEIKELALNFRDTVGVPVKVEIKVFSTDEAVVERTVAILEKMAEELAKEGIEVTITGEVVK = -1.04

Briefly, median log2 fold change measured for uchl1_89_7579 (protein) EEERLARARERLRRVLAATRAELARLEARIGEVSPELAAARDALFAAAEAAIADPALAAAQLEAAEAAARRLVALTPPELRASVRLATGRLLNRLLGYAA : -0.16
